# TARGET UNDER TEST: human Opioid Receptor Mu (Opiate Mu), OPRM1 (gene 4988) (UniProt P35372)
# Sequence (P35372 whole entry, looked up): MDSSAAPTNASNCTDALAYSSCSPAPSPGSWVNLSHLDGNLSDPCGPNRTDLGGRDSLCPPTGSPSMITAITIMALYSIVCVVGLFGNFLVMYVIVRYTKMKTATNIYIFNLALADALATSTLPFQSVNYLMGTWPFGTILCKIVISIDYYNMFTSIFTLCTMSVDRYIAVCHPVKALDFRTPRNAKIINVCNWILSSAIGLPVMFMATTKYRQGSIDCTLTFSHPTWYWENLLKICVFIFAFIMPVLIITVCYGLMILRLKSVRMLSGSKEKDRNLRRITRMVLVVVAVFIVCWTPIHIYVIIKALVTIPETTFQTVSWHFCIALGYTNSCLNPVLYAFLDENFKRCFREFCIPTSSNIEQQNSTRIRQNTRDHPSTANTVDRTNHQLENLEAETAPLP
# ASSAY DETAILS: NVS_GPCR_hOpiate_mu: NovaScreen (NVS) G Protein-Coupled Receptor Assay for human Opioid Receptor Mu (Opiate Mu) (AID 2283290);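 also: hits lower bound tracer signal versus DMSO meaning displacement of the ligand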
Inconclusive results are not listed. The source made the active and inactive calls. The calls were made as follows: active = hit-call score of the fitted dose curve at least 0.9, where 1 is the maximum; inconclusive = response in the unintended direction; inactive = score below 0.9.
Respond only with the outcome that fits, drawn from active, inactive

Examples with answers:
Q: Which outcome was entered for the compound Clc1ccc(C(c2ccccc2Cl)C(Cl)(Cl)Cl)cc1 (stereo not given) in this test?
Result: inactive

Q: I'd appreciate the recorded outcome for O=C(O)C(F)(F)C(F)(F)C(F)(F)C(F)(F)C(F)(F)C(F)(F)C(F)(F)C(F)(F)C(F)(F)F from this test.
Result: active

Q: Hi, do you know how CC(C)(c1ccccc1)c1ccc(O)cc1 came out in this test?
Result: active

Continuing:
Q: Query: recorded result category for CCCCCCCCCC[N+](C)(C)CCCCCCCCCC in this test
Result: active

Q: # outcome recorded in this test, key = C[C@]12CCC(=O)C=C1CC[C@@H]1[C@@H]2CC[C@@]2(C)[C@H]1CC[C@]2(C)O
Result: inactive
